Target: UniProtKB P29323
Sequence (P29323 19-1055): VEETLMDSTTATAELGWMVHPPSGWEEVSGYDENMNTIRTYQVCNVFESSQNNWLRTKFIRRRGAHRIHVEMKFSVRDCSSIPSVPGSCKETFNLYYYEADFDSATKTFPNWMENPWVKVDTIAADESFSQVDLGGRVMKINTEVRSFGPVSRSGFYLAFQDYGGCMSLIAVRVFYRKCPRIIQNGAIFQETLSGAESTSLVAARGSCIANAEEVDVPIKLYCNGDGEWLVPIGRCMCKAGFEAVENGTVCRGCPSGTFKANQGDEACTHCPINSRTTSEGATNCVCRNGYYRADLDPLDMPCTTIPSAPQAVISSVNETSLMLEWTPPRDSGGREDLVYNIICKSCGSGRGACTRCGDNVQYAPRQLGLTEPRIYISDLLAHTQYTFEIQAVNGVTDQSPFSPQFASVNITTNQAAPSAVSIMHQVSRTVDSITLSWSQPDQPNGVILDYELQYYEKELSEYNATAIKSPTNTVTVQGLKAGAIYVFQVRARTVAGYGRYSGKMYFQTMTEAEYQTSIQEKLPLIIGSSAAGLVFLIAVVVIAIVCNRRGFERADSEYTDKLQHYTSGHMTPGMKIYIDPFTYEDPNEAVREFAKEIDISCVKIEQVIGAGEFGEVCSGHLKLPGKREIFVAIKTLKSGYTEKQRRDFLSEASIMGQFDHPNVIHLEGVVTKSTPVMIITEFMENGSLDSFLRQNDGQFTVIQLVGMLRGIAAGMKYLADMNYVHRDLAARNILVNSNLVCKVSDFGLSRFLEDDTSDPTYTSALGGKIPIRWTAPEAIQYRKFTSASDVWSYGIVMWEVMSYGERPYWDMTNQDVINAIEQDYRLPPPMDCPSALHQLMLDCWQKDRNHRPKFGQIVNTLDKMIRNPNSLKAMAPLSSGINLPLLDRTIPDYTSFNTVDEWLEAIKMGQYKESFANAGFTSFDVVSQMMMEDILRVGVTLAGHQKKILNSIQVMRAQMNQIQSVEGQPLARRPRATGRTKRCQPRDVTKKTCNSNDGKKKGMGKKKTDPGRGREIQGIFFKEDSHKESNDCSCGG
Quick reference: IC50 of the listed items.

compound | value_measured
COc1ccc(C2CC(c3ccc(Cl)cc3Cl)=NN2c2nc(C)c(C(=O)Nc3ccccc3)s2)cc1OC (centres unmarked) [Compound 10d] | > 2 µM

Request: State recorded IC50 with UniProtKB P29323, entry CCOC(=O)c1sc(N2N=C(c3ccc(Cl)cc3Cl)CC2c2ccc(OC)cc2)nc1C (centres unmarked) [Compound 10b] , no comment.
Result: > 2 µM
